Biological target: TbNT11.1 (Trypanosoma brucei brucei, UniProt Q38CR7)
Assay type: cell-based
Details: 1 μM [3H]substrate, Δlmant3[pTbNT11] line
property measured: TbNT11.1-mediated uptake of radiolabeled substrate

smi: O=c1[nH]c(=O)c2nc[nH]c2[nH]1
recorded measurement: mediated uptake
//
smi: Nc1ncnc2[nH]cnc12
recorded measurement: mediated uptake
//
smi: O=c1[nH]cnc2nc[nH]c12
recorded measurement: mediated uptake

====

Molecular target: UniProtKB Q38CR7
Assay: Inhibition of [3H]adenine uptake by TbNT11.1 in Δlmant3[pTbNT11.1] parasites
Format: cell-based
pEC50: −log10 of the molar value.
property measured: pEC50

compound: N=C(N)c1ccc(OCCCCCOc2ccc(C(=N)N)cc2)cc1
recorded measurement: 5.02

compound: Nc1nc(N)nc(Nc2ccc([As]3SCC(CO)S3)cc2)n1 (centres unmarked)
recorded measurement: 4.89
